# Test system: MS2 coat protein
# TEST PROTOCOL: apparent KD of MS2 coat protein; higher = weaker reporter binding
# TEST CONTEXT: Eterna round: R107; input ligand: arginine 13.2 mM
Known apparent KD of MS2 coat protein of a selection of sequences
Your answer is read as nM, so omit the unit and give the number.

- SEQUENCE INPUT: "AGAGUCAGACAAAAGUCUGGCUCAACCGAAGGAGCGUCCGAAAGGACAGGUAGGUCGCGGUUACCUGAGGAUCACCCGGGUUCCU [ArgAS 9 #OpenEnded #AlternativeMS2]"
  NUMERIC READOUT: 100
- SEQUENCE INPUT: "CCUAUGCAGUCGGCCGCCACUGAACAUGAGGAUCACCCAUGUAAUUAAAAUUAUGAUCCUGAAAUCAGGACCGGGACUGUAUAGG [Ex Tryptophan B 5]"
  NUMERIC READOUT: 28.6

Q) Return value of apparent KD of MS2 coat protein for input CGGUCGGUCGGUCGGUGAGUAUGGGAUGAAGGAGCGUGGGAAGCUACAGGUAGGUCGCAUCCGGGACAUGAGGAUCACCCAUGUU [#19 Same State - Arginine A] , no commentary.
A) 19.8

Q) Specify measured apparent KD of MS2 coat protein for CCGUCCCUCGGAAGGAGCGGCGCAAUGUAAGGGACCUUUUAUACAUGAGGAUCACCCAUGUGCCAGGUAGGUCGCCGAGAGCGUG [Erxeatge] .
A) 79.5

Q) Consider the sequence UGUUUCGCGGGCGAUACCAGCUUGAUCGUACUGGCCUGGUACAUGAGGAUCACCCAUGUAAGCCCUUGGCAGCGCGCGCGAGACG [#1 Exclusion - Theophylline B Attempt #3 (HarryS)] . State its measured apparent KD of MS2 coat protein.
A) 19.6

Q) Please look at this sequence and report its apparent KD of MS2 coat protein: GAGCUGAUGUAGAGCUAAUAUAAGAGAGAUACCAGUACAGAAAUGUACCCUUGGCAGCUCAACUUUACAUGAGGAUCACCCAUGU [Ex Theophylline A 21]
A) 12.2

Q) Provide apparent KD of MS2 coat protein value for the following sequence: AUCGUACCUGGUGAUACCAGCAAGUGAUUAUAACAUGAGGAUCACCCAUGUAAUCAGUGAUGCCCUUGGCAGCAUAAUCGGUACA [#24 Same State - Theophylline B]
A) 26.9

Q) Tell us which apparent KD of MS2 coat protein value is on record for GCACCAGGUACGGAUACCAGAGCAAGCCAAAUGAGUGACCAUGAGGAUCACCCAUGGUUGCUCCCUUGGCAGCCGUACCUGGUGC [ETB NP+V+V2 #13 Diff Apt, +-Same Structure]
A) 7.28

Q) Read the entry UGUGUAAUUGUCUGGUAGAAUUAUUUGUUUCGAGGACCGGUACGGCCGCCACUCGAUAUUUACAUGAGGAUCACCCAUGUUAGCU [JR_SSTryptoA_Sub004] and write its reported apparent KD of MS2 coat protein.
A) 13.9

Q) Report apparent KD of MS2 coat protein, nothing else, for this sequence: AGAGUCUAGUCGGCCGCCACUCAUGUCCAAAGGACAUGAGGAUCACCCAUGUACCUAAGGUACAUGAGGACCGGGACUGGACUCA [Omei Tryp B SS C v5]
A) 13.1

Q) Look up apparent KD of MS2 coat protein of GUUGAGACCUCGGCCGCCACUCGCCAUGAGGAUCUCCCAUGUAACAUGAGGAUCACCCAUGUACUGAGGACCGGGAGGUCCUUGU [Same State Tryptophan B GF 16] and report it.
A) 12

Q) Consider the sequence `UGUAUGGACUGAAGGAGCGGGAAAUAAACCUGAGGAUCACCCAGGUAAUAGGCGAAAGCCACCCAGGUAGGUCGCAGUCCAUACU` and give its recorded apparent KD of MS2 coat protein.
A) 10.7

Q) Give the value of apparent KD of MS2 coat protein reported for the following: CGUCGAGACUGAAGGAGCGAGAUAACAACAUUGGGUCUCAACAUGAGGAUCACCCAUGUAUCUCAGGUAGGUCGCGGUGUCACCG [Exclusion Arginine B GF20]
A) 137

Q) Annotate the sequence UUAAUUAUUGAAUCGUAUUGGUAUUAAGAACGAGGACCGGUACGGCCGCCACUCGUGAUAUACAUGAGGAUCACCCAUGUUAGCA [JR_Nu_SSTryptoA_Sub022] with its measured apparent KD of MS2 coat protein.
A) 15

Q) Input UUCUUUAAGUCGGCCGCCACUGAAACAUGAGGAUCACCCAUGUAAAUUUGGGAGUAGUUAUAUUACAGGACCGGGACUAUAGUAA [JR_ExcTryptoB_Sub020] , output reported apparent KD of MS2 coat protein.
A) 34.8

Q) Determine from records and report apparent KD of MS2 coat protein for UAAACUACACAUGAGGAUCACCCAUGUGGCCGAGGACCGGUACGGCCGCCACUCGUGUGUUAAUAAAAGAACCGCAAAGUUCUUU [Raesonisso]
A) 74.2

Q) Read the entry GGUGAUCCGUGCUGCCGGAUCAUCGGUGAUACCAGCAUCGAAAGAUGCCCUUGGCAGCACCAACAUGAGGAUCACCCAUGUAAUA [(M)'-(T)'-(M)''-(T1)-(T2)-(M1)-(M2)_Design5] and write its reported apparent KD of MS2 coat protein.
A) 46

Q) Answer with reported apparent KD of MS2 coat protein of AGAGCAUUGACGGCCGCCACUCAUGUCACAUGAGGAUCACCCAUGUGAUGGGUAAUCGCCCGGUUGAGGACCGGGUCAAUGCUCA [Omei Tryp SS B v3]
A) 6.69

Q) Find the measured apparent KD of MS2 coat protein of AAGACGGUCGGAAGGAGCGGUACAUGAGGAUCACCCAUGUACUUCUGGGCAUCCGUAGUGUGCCAGGUAGGUCGCCGAUUGCGGG [XArg-B12] and report it.
A) 32.7

Q) Please supply the value of reported apparent KD of MS2 coat protein for the item `GGACUAACCAGAAGGAGCGGCACGCAGAAACUGCAAUUUCCUCCGCACGAGGAUCACCCGUGUCAGGUAGGUCGCUGGUUAGUCG`
A) 21.8

Q) For the sequence CCUAUCCAGUCGGCCGCCACUGACCAUUUGGAACAGUGGGUGAAUACAUGAGGAUCACCCAUGUACAGGACCGGGACUGUAUAGG [Ex Tryptophan B 21] , report apparent KD of MS2 coat protein.
A) 14.4

Q) Quote apparent KD of MS2 coat protein reported for GCUGUAAGUGCAGAUACCAGCAAGUGAGGUUUCAUAUGACAUGAGGAUCACCCAUGUAUCUGCCCUUGGCAGCUGCACUUACAGC [#28 Same State - Theophylline B] please.
A) 17

Q) Retrieve apparent KD of MS2 coat protein measured for AGGGAAUGAAUAGAAUGAGAUGACACAGAAGGAGCGCCGAUUAAGGCAGGUAGGUCGCUGACAACAUGAGGAUCACCCAUGUUAA [#11 Same State - Arginine A] and print it.
A) 8.73
